Ref: patent US20240415914A1

Stability in AB White, 21-25° C. (content by LCMSMS) values for the compounds below.
Test: Stability of cannabinoid and Vitamin E components of Beverage 1 (AB White) stored at 8° C. and 21-25° C., LCMSMS over 570 days
Format: physicochemical
Settings: beverage stored at 21-25° C., day 270
Dear colleague, please return just the value in µg/mL, with no unit written.

Some compounds with known Stability in AB White, 21-25° C. (content by LCMSMS) results, for comparison:
State the recorded Stability in AB White, 21-25° C. (content by LCMSMS) for this entry: CCCCCc1cc(O)c2c(c1)OC(C)(CCC=C(C)C)C=C2 (centres unmarked)
0.316

Entry under review: CCCCCc1cc(O)c2c(c1)OC1(C)CCC3C1C2C3(C)C (centres unmarked) . Reported Stability in AB White, 21-25° C. (content by LCMSMS)?
0.535

Item under review: C=C(C)[C@@H]1CCC(C)=C[C@H]1c1c(O)cc(CCC)cc1O . Reported Stability in AB White, 21-25° C. (content by LCMSMS)?
0.148

GET /values?readout=Stability in AB White, 21-25° C. (content by LCMSMS)&item= CCCc1cc(O)c2c(c1)OC(C)(C)[C@@H]1CCC(C)=C[C@@H]21 [THCV, delta-9-tetrahydrocannabivarin]
3.56

With those in mind, consider the next compound.
Endpoint output: Stability in AB White, 21-25° C. (content by LCMSMS) of CCCCCc1cc(O)c2c(c1)OC(C)(C)[C@@H]1CCC(C)=C[C@@H]21 [D9 THC, delta-9-tetrahydrocannabinol, reference compound] . Value?
11.9
